Below is a list of entries, each paired with its recorded IC50 (µg/mL), pseudovirus neutralization value.
target: HIV-1 APV-13 Env (pseudovirus) (HIV-1 isolate APV-13); experiment: cell-based or functional assay

Answered cases to consult:
1496_C09 (PG9) (TCN-109) (antibody, V domains shown) VH: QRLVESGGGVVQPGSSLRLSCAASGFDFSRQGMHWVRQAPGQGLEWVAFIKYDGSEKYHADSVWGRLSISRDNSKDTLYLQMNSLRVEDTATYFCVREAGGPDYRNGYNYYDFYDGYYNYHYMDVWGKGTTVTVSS VL: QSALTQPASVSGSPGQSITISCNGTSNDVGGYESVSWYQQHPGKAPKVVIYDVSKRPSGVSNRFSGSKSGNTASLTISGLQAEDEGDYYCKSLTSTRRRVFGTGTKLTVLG = > 50 µg/mL
1443_C16 (PG16) (TCN-116) (antibody, V domains shown) VH: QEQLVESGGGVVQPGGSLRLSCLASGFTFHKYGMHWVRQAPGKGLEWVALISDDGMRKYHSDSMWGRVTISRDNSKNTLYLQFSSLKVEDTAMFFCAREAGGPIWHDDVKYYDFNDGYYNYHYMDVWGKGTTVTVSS VL: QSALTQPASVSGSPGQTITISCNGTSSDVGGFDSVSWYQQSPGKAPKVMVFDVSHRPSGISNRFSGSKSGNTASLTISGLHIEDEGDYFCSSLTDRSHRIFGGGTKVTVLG = > 50 µg/mL

Okay, next one:
Problem: Give the reported value of IC50 (µg/mL), pseudovirus neutralization for this record: 1456_P20 (PG20) (antibody, human IgG1, kappa, V domains shown) VH: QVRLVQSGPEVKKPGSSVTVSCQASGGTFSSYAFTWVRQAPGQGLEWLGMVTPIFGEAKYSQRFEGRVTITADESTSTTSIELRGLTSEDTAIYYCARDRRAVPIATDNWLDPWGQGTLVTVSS VL: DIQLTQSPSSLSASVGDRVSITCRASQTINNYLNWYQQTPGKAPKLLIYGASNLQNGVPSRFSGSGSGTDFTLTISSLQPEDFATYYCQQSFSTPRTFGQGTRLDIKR
Result: > 50 µg/mL
